B1: GMCL1 (parent)
chain: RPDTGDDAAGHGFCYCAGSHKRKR

Variants of: B1
protocol-description: protein stability index of a GFP-peptide fusion (GPS, HEK-293T) (PSI 1-6); higher = more stable;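 further: lentivirally expressed fusions sorted by FACS into six bins by GFP to DsRed ratio, PSI derived from sequencing read proportions per bin multiplied by bin number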
measurement-context: c terminus: a fixed tail appended
measured-endpoint: protein stability index
// print number alone

Task item: I'd like to know its protein stability index. The variant in question is R22Q
Reply: 2.66

Task item: I'd like to know its protein stability index. The variant in question is G5T
Reply: 2.97

Task item: I'd like to know its protein stability index. The variant in question is A8Y
Reply: 2.61

Task item: I'd like to know its protein stability index. The variant in question is R22A
Reply: 2.76

Task item: I'd like to know its protein stability index. The variant in question is D7H
Reply: 3.09

Task item: I'd like to know its protein stability index. The variant in question is H20I
Reply: 3.9

Task item: I'd like to know its protein stability index. The variant in question is A17V
Reply: 2.56

Task item: I'd like to know its protein stability index. The variant in question is H20K
Reply: 4.09

Task item: I'd like to know its protein stability index. The variant in question is H11E
Reply: 3.49

Task item: I'd like to know its protein stability index. The variant in question is D3W
Reply: 3.04

Task item: I'd like to know its protein stability index. The variant in question is P2F
Reply: 2.91

Task item: I'd like to know its protein stability index. The variant in question is D6M
Reply: 2.79

Task item: I'd like to know its protein stability index. The variant in question is K21S
Reply: 2.34

Task item: I'd like to know its protein stability index. The variant in question is Y15L
Reply: 2.84

Task item: I'd like to know its protein stability index. The variant in question is F13G
Reply: 3.69

Task item: I'd like to know its protein stability index. The variant in question is H20V
Reply: 2.79

Task item: I'd like to know its protein stability index. The variant in question is G5R
Reply: 3.15

Task item: I'd like to know its protein stability index. The variant in question is R1G
Reply: 3.97

Task item: I'd like to know its protein stability index. The variant in question is A17F
Reply: 2.2

Task item: I'd like to know its protein stability index. The variant in question is T4W
Reply: 2.71

Task item: I'd like to know its protein stability index. The variant in question is F13S
Reply: 2.84

Task item: I'd like to know its protein stability index. The variant in question is G10Q
Reply: 3.36

Data provenance: the supplement of paper PMC10567573
